Molecular target: Luciferin 4-monooxygenase (Photinus pyralis) (UniProt P08659)
Sequence (P08659 whole entry, looked up): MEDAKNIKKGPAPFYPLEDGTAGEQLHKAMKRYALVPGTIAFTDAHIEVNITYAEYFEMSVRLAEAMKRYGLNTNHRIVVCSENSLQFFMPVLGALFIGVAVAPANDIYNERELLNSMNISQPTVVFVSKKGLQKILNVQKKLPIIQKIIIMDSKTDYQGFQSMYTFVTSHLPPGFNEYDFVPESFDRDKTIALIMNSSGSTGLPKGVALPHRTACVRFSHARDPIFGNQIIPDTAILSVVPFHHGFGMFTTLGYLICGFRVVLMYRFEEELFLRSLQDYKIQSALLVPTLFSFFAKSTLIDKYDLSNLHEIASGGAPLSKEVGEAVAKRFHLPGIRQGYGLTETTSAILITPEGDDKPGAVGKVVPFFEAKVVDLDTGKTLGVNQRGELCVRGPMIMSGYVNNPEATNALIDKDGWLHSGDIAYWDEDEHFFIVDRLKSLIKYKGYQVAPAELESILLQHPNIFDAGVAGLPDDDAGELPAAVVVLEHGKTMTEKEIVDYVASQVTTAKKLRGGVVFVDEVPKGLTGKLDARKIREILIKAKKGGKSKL
Experiment: firefly luciferase enzyme inhibitors, primary screen, biochemical, luminescence, purified enzyme, 2006 set (AID 1141);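 also: cell-free assay with purified firefly luciferase at 100 ng per well in PBS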
Conditions: SteadyGlo luminescence, 30 min, higher = more signal, called active from +8 up or from −8 down
z-score values for the compounds below.

| Record Smiles | Assayed System | z-score |
| --- | --- | --- |
| CO[C@H]1O[C@H](CO)[C@@H](OC(=O)Nc2ccc(Oc3ccccc3)cc2)[C@H](OC(=O)Nc2ccccc2)[C@H]1OC(=O)Nc1ccccc1 | Luciferin 4-monooxygenase (Photinus pyralis) (UniProt P08659) | -0.923 |
| CN(C)CCCCNC(=O)[C@H]1C[C@H]2C(=O)N[C@@H](Cc3ccccc3)C(=O)N2[C@H]1c1ccc(O)cc1 | Luciferin 4-monooxygenase (Photinus pyralis) (UniProt P08659) | 0.999 |
| O=C1N(CCS(=O)(=O)c2ccccc2)c2ccccc2C[C@@]12COC(c1ccc(OCCCO)cc1)=N2 | Luciferin 4-monooxygenase (Photinus pyralis) (UniProt P08659) | -1.63 |
| C=CCOC(=O)[C@H]1[C@@H]2C(=O)O[C@@H](c3ccccc3)[C@@H](c3ccccc3)N2[C@@H](c2ccc(OCCOC(=O)[C@@H]3C[C@@H]4C(=O)N5CCC[C@H]5C(=O)N4[C@@H]3c3ccc(O)cc3)cc2)[C@]12C(=O)Nc1ccccc12 | Luciferin 4-monooxygenase (Photinus pyralis) (UniProt P08659) | -0.354 |

----------
Experiment: RPMI8226 myeloma cell viability, profiling panel, resazurin fluorescence, basal, 24 h, PK04 Diversity Set (AID 1180);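 also: RPMI8826 multiple myeloma cell line at 5000 cells per well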
Details: higher = more signal
z-score values for the compounds below.
Quantity Kind: z-score

| Compound | Numeric Readout |
| --- | --- |
| COc1ccc(C(=O)Nc2cccc(CN3C(=O)[C@@]4(O[C@@H](CCn5cc(CCO)nn5)[C@H]([Si](C)(C)c5ccc(OC)cc5)[C@H]4C)c4ccccc43)c2)cc1 | -6.23 |
| CCN(CC)c1ccc(N2CC=CC34O[C@@H]5/C=C\CCCOC(=O)C5[C@H]3C(=O)N(C(CO)C(C)C)[C@@H]4C2=O)cc1 (some centres not stated) | -0.0389 |
| COCCOC(=O)N1C(=O)[C@@]2(c3cc(C#CCNC(N)=O)ccc31)[C@H](c1ccccc1OCCO)N1[C@H](c3ccccc3)[C@H](c3ccccc3)OC(=O)[C@H]1[C@@H]2C(N)=O | 0.138 |
| C=C(COC)C(=O)CC[C@H](OC(C)=O)c1cccc(OCCO)c1 | -1.27 |
| CCCNC(=O)[C@@H]1c2ccccc2C(=O)N(Cc2ccccc2)[C@H]1c1ccc(CO)cc1 | 0.477 |
| CCC(CC)C(O)C1C=CC2C(=O)N(c3ccccc3)C(=O)C2N1Nc1ccc(C#N)cc1 (configuration not stated) | -0.308 |
| COc1ccc(C(O)C2C=CC3C(=O)NC(=O)C3N2Nc2ccccn2)cc1OCc1ccccc1 (configuration not stated) | -1.87 |

----------
Assay: basal RPMI8226 mitochondrial membrane potential changes, profiling panel, cell-based, JC-1 fluorescence, 24 h, 100 nL compound (AID 1169)
Conditions: RPMI8226 myeloma, JC-1 mitochondrial potential fluorescence, higher = more signal
z-score values for the compounds below.
Quantity Kind: z-score

| Record Smiles | Numeric Readout |
| --- | --- |
| COCCOC(=O)N1C(=O)[C@@]2(c3cc(C#CCNC(N)=O)ccc31)[C@H](c1ccc(O)cc1)N1[C@H](c3ccccc3)[C@H](c3ccccc3)OC(=O)[C@H]1[C@@H]2C(=O)Nc1nc2ccccc2s1 | -1.03 |
| [N-]=[N+]=NCc1ccccc1[C@H]1OC(c2ccc(OCCCO)cc2)=N[C@@]1(CCS(=O)(=O)c1ccccc1)C(=O)N1CCOCC1 | -0.507 |
| COC(=O)[C@@]1(Cc2ccc(F)cc2)[C@H]2c3cc(C(=O)N(C)C)n(CCc4ccccn4)c3C[C@H]2CN1C(=O)c1ccccc1 | -0.153 |

----------
Biological target: Fibroblast growth factor 2 (Homo sapiens) (UniProt P09038)
Sequence (P09038 whole entry, looked up): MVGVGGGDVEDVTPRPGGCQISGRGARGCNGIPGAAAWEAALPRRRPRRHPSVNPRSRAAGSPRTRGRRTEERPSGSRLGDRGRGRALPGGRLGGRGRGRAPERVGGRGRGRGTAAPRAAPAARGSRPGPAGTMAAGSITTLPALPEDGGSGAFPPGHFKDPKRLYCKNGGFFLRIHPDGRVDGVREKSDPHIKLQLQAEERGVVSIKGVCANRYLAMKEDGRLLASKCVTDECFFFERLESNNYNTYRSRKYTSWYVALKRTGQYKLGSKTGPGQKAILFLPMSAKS
Test: FGF2 binders on small-molecule microarrays, primary screen, biochemical, small-molecule microarray, 635/667 nm fluorescence (AID 1133)
Conditions: small-molecule microarray binding, FGF2, fluorescence 635/667; higher = more signal

| Compound | composite z-score |
| --- | --- |
| CCC(CC)C(O)C1C=CC2C(=O)N(c3ccccc3)C(=O)C2N1Nc1ccc(C#N)cc1 (configuration not stated) | -0.177 |
| C=C(COC)/C(=C/C[C@H](OC(=O)c1ccncc1)c1cccc(OCCO)c1)c1cc(C(=O)OC)ccc1OC | 0.245 |
| O=c1oc(-c2ccccc2)nc2cc(Br)ccc12 | 0.671 |
| C=CCC(OC(C)=O)[C@@H]1[C@@H](N(Cc2cccc3ccccc23)C(=O)c2ccc(C)cc2)c2cc(OCCCO)ccc2N1C(=O)Cc1ccc(OC)cc1 (some centres not stated) | -0.148 |
| O=C1C[C@@](C(=O)NC2CC2)(c2ccc([N+](=O)[O-])cc2)[C@@H](c2ccc(CO)cc2)N1CC12CC3CC(CC(C3)C1)C2 | 0.0882 |
| COc1ccc(C(=O)Nc2cccc(CN3C(=O)[C@]4(O[C@H](CC(=O)N5CCC[C@H]5CO)[C@@H]([Si](C)(C)c5ccc(OC)cc5)[C@@H]4C)c4ccccc43)c2)cc1 | 1.33 |
| O=c1cccc(CCc2ccccc2)o1 | 0.257 |

----------
Test: PSAC antagonists in infected red cells, primary screen, cell-based, P. falciparum Indochina, OD700, 18 h (AID 1157)
Settings: P. falciparum Indochina infected erythrocytes, osmotic lysis OD700, 18 h; higher = more signal, called active from +8 up or from −8 down
Quantity Kind: z-score

| Compound | Quantity Kind | Numeric Readout |
| --- | --- | --- |
| CCCCCN1CC=CC23O[C@@H]4C=CCOC(=O)[C@@H]4[C@H]2C(=O)N(CCCO)[C@@H]3C1=O (some centres undefined) | z-score | -0.501 |
| NC(=O)NCC#Cc1ccc2c(c1)[C@]1(C(=O)N2)[C@H](C(=O)N2CCCCCCC2)[C@H]2C(=O)O[C@H](c3ccccc3)[C@H](c3ccccc3)N2[C@@H]1c1ccc(OCCO)cc1 | z-score | 0.286 |
| CC(C)C(O)C1C=CC2C(=O)N(c3ccccc3)C(=O)C2N1Nc1ccc(C#N)cc1 (centres undefined) | z-score | 0.875 |
| Cc1ccc(F)cc1S(=O)(=O)N[C@@H]1CCN(Cc2ccc(-c3ccccc3)cc2)C1 | z-score | 1.41 |

----------
System: XIP peptide (Xip251-270) binding
Test: small-molecule binders of XIP peptide, primary screen, biochemical, small-molecule microarray, fluorescence 635/667 nm, 0.1 µg/mL protein (AID 1182)
Conditions: fluorescent protein binding, 635 nm, higher = more signal, called active from +8 up or from −8 down

| Compound | composite z-score |
| --- | --- |
| CCN(CC)c1ccc(N2CC=CC34O[C@@H]5/C=C\CCCOC(=O)C5[C@H]3C(=O)N(C(CO)C(C)C)[C@@H]4C2=O)cc1 (stereo partly drawn) | 1.05 |
| CC(C)OC(=O)CC(=O)CC(O)c1ccc(C#N)cc1 (stereo not drawn) | 3.17 |
| COc1ccc([Si](C)(C)[C@H]2[C@H](CCn3cc([C@H](O)c4ccccc4)nn3)O[C@@]3(C(=O)N(Cc4cccc(N5CCC5=O)c4)c4ccccc43)[C@@H]2C)cc1 | 0.275 |
| COc1ccc(C(=O)Nc2cccc(CN3C(=O)[C@@]4(O[C@@H](CCn5cc(CCO)nn5)[C@H]([Si](C)(C)c5ccc(OC)cc5)[C@H]4C)c4ccccc43)c2)cc1 | 0.201 |
| COc1ccc(C#Cc2ccc3c(c2)[C@]2(C(=O)N3)[C@H](C(=O)NC[C@H](O)c3ccccc3)[C@H]3C(=O)O[C@H](c4ccccc4)[C@H](c4ccccc4)N3[C@@H]2c2ccccc2OCCO)cc1 | 0.0376 |
| N[C@@H](Cc1ccccc1)Cn1cc(-c2ccccc2)nn1 | -0.259 |
| Cc1c(NC(=O)CC#N)c(=O)n(-c2ccccc2)n1C | 0.248 |
| [N-]=[N+]=NCc1ccccc1C[C@@]1(C(=O)N2CCOCC2)N=C(c2ccc(OCCCO)cc2)O[C@@H]1c1ccccc1CN=[N+]=[N-] | 1.16 |

----------
composite z-score values for the compounds below.
System: Chordin-like protein 2 (CHRDL2)
Assay: CHRDL2 small-molecule binders, primary screen, biochemical, small-molecule microarray, 635 nm fluorescence (AID 1126);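 also: printed compound slides probed with Chrdl2 protein at 4 µg/mL for 1 h at 4 C; score merges 667 nm emission intensity with signal to noise over three replicate slides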
Conditions: small-molecule microarray binding, fluorescence 635 nm; higher = more signal
Quantity Kind: composite z-score

| Compound | Numeric Readout |
| --- | --- |
| C=C(C(=O)CC[C@H](OC(C)=O)c1ccc(OCCO)cc1)C(C)C | 0.615 |
| COC(=O)[C@@]1(Cc2ccc(F)cc2)[C@H]2c3cc(C(=O)N(C)C)n(CCc4ccccn4)c3C[C@H]2CN1C(=O)c1ccccc1 | -0.464 |
| CC(C)CNC(=O)[C@@]1(c2ccc([N+](=O)[O-])cc2)CC(=O)N(CC23CC4CC(CC(C4)C2)C3)[C@@H]1c1ccc(CO)cc1 | 0.201 |
| C=CCC(OC(C)=O)[C@@H]1[C@@H](N(Cc2ccc(-c3ccccc3)cc2)C(=O)Cc2ccc(OC)cc2)c2cc(OCCCO)ccc2N1C(=O)c1ccc2ccccc2n1 (stereo partly specified) | 0.0504 |
| CC(=O)NCCCC[C@@H]1NC(=O)[C@H]2C[C@@H](C(=O)NCCCCCC[N+](C)(C)C)[C@@H](c3cccc(OCCO)c3)N2C1=O | 1.45 |
| C=C(CCCC)/C(=C/C[C@H](OC(C)=O)c1ccc(CO)o1)c1cnc2ccccc2c1 | 0.968 |
